# System: dopaminergic receptor
# Method Description: Anti-apomorphine activity in mouse
# Experimental Context: ratio of anti-epinephrine ED50 (B) to anti-apomorphine ED50 (A)
I'd be grateful if you could share measured (B)/(A) for these entries.

Please review the following examples before continuing.
O=C1CCc2ccc(OCCCCN3CCN(c4cccc(Br)c4Br)CC3)cc2N1 [Test compound 9] : > 426.7
CCOc1ccccc1N1CCN(CCCCOc2ccc3ccc(=O)[nH]c3c2)CC1 [Test compound 11] : 31.6
Cc1c(N2CCN(CCCCOc3ccc4c(c3)NC(=O)CC4)CC2)cccc1[N+](=O)[O-] [Test compound 2] : > 426.7
Cc1cccc(N2CCN(CCCCOc3ccc4c(c3)NC(=O)CC4)CC2)c1Cl [Test compound 3] : > 160

Please give (B)/(A), item by item, for the list that follows.
1. O=C1CCc2ccc(OCCCCN3CCN(c4cc(Cl)cc(Cl)c4)CC3)cc2N1 [Test compound 5]
2. COc1ccccc1N1CCN(CCCCOc2ccc3c(c2)NC(=O)CC3)CC1 [Test compound 8]
3. Cc1cccc(N2CCN(CCCCOc3ccc4c(c3)NC(=O)CC4)CC2)c1Br [Test compound 4]

1. > 256
2. 12.5
3. > 160

----------
# Test system: dopaminergic receptor
# Method Description: Anti-apomorphine activity in mouse
# Experimental Context: Mus musculus, po, 1 h, read-out: Anti-apomorphine activity (ED50 mg/kg) (A)
Recorded Metric: ED50 (mg/kg)
One number for each entry, in mg/kg.

O=C1CCc2ccc(OCCCCN3CCN(c4cc(Cl)cc(Cl)c4)CC3)cc2N1 : 0.5
COc1ccccc1N1CCN(CCCCOc2ccc3c(c2)NC(=O)CC3)CC1 : 0.2
Cc1cccc(N2CCN(CCCCOc3ccc4c(c3)NC(=O)CC4)CC2)c1Cl : 0.4

Please report ED50 for every entry that follows.
1. O=C1CCc2ccc(OCCCCN3CCN(c4cc(Cl)cc(Cl)c4Cl)CC3)cc2N1
2. CCOc1ccccc1N1CCN(CCCCOc2ccc3ccc(=O)[nH]c3c2)CC1
3. Cc1cccc(N2CCN(CCCCOc3ccc4c(c3)NC(=O)CC4)CC2)c1Br
4. Cc1c(N2CCN(CCCCOc3ccc4c(c3)NC(=O)CC4)CC2)cccc1[N+](=O)[O-]
5. O=C1CCc2ccc(OCCCCN3CCN(c4cccc(Cl)c4Cl)CC3)cc2N1

0.4
0.12
0.4
0.3
0.18

# batch: return ED50 for each of the 2 molecules below
1. O=C1CCc2ccc(OCCCCN3CCN(c4cccc(Br)c4Br)CC3)cc2N1
2. O=c1ccc2ccc(OCCCCN3CCN(c4cccc(Cl)c4Cl)CC3)cc2[nH]1

1. 0.6
2. 0.36

----------
I'd be grateful if you could share measured (B)/(A) for these entries.
# Test system: dopaminergic receptor
# Method Description: Anti-apomorphine activity in mouse
# Experimental Context: ratio of anti-epinephrine ED50 (B) to anti-apomorphine ED50 (A)

// below: answered compounds
O=C1CCc2ccc(OCCCCN3CCN(c4cccc(Cl)c4Cl)CC3)cc2N1 : > 711
O=C1CCc2ccc(OCCCCN3CCN(c4cc(Cl)cc(Cl)c4Cl)CC3)cc2N1 : > 320

Could you tell me which (B)/(A) is on file for `O=c1ccc2ccc(OCCCCN3CCN(c4cccc(Cl)c4Cl)CC3)cc2[nH]1` ?
> 355
